The measured values listed here are drawn from PubChem BioAssay (NCATS).

Test: Cytotoxicity counterscreen for inhibitors of SARS-CoV-2 cell entry (AID 1645845); further: nearly all actives have a fitted effect of over 50% in size
Conditions: cell viability (SARS-CoV-2 entry assay cells); series mostly up to 57.1 µM
Description: Assay Provider: Wei Zheng, Ph.D. National Center for Advancing Translational Sciences, National Institute of Health, Rockville, MD. SARS-CoV-2 spike protein, within the viral envelope, mediates viral attachment and infection of host cells. The SARS-CoV-2 spike protein specifically binds to the host receptor ACE2 (Angiotensin-converting enzyme 2). […] 7. […] Dispense 4 uL/well of ATPLite 1step luminescence assay reagent (PerkinElmer #6016739). […] 9. […] Read luminescence signal (Viewlux plate reader, PerkinElmer). […]
Inconclusive results are not listed. The source made the active and inactive calls. The call rests on the fitted dose curve.
Use one of these outcomes when replying: TRUE (active), FALSE (inactive)

compound	assigned class
Cc1sc2c(c1C)C(c1ccc(Cl)cc1)=N[C@@H](CC(=O)Nc1ccc(OCCOCCOCCOCCNc3cccc4c3C(=O)N(C3CCC(=O)NC3=O)C4=O)cc1)c1nnc(C)n1-2 (some centres undefined)	FALSE
O=C(/C=C/c1cccc(S(=O)(=O)Nc2ccccc2)c1)NO	TRUE
CC[C@H]1OC(=O)C[C@@H](OC(C)=O)[C@H](C)[C@@H](O[C@@H]2O[C@H](C)[C@@H](O[C@H]3C[C@@](C)(O)[C@@H](OC(=O)CC(C)C)[C@H](C)O3)[C@H](N(C)C)[C@H]2O)[C@@H](CC=O)C[C@@H](C)C(=O)/C=C/C(C)=C/[C@@H]1CO[C@@H]1O[C@H](C)[C@@H](O)[C@@H](OC)[C@H]1OC	FALSE
CCC(=O)NC[C@H](Cc1ccc(OCCc2nc(-c3ccccc3)oc2C)cc1)N/C(C)=C\C(=O)c1ccc(C(F)(F)F)cc1	FALSE
Cn1cc(-c2cc(Oc3cc(F)c(NC(=O)C4(C(=O)Nc5ccccc5)CC4)cc3F)ccn2)cn1	FALSE

// return assay outcome for CCc1ccc(N(CC(C)C)S(=O)(=O)c2ccc(OCC3CCOCC3)c(CO)c2)cc1
FALSE
